Molecular target: Induced myeloid leukemia cell differentiation protein Mcl-1 (Homo sapiens, UniProt Q07820)
Sequence (Q07820 whole entry): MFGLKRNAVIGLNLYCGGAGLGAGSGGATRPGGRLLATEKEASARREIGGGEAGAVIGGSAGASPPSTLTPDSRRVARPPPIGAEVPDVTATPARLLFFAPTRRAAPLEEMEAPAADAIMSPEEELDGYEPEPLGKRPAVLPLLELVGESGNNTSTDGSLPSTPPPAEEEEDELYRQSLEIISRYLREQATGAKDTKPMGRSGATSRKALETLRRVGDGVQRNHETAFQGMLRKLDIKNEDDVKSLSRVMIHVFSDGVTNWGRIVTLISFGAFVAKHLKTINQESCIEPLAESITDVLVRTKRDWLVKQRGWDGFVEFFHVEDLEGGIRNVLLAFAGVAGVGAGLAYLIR
Recorded pKi for the following compounds
Kindly note that pKi refers to -log10 of the concentration in mol/L and answer with the value alone.

1) CC(=O)N1CCN(c2ccc(OCc3nn(C)c(C)c3-c3cccc4c(CCCOc5cccc6ccccc56)c(C(=O)O)n(Cc5cccnc5)c34)cc2)CC1    7.01
2) Cc1nn(C)c(COc2ccc(N3CCN(S(=O)(=O)N(C)C)CC3)cc2)c1-c1cccc2c(CCCOc3cccc4ccccc34)c(C(=O)O)n(CCN3CCOCC3)c12    8.10

Now turn to the next compound.
# Cc1nn(C)c(C)c1-c1cccc2c(CCCOc3cccc4ccccc34)c(C(=O)O)n(CCN3CCOCC3)c12 with Induced myeloid leukemia cell differentiation protein Mcl-1 (Homo sapiens, UniProt Q07820): pKi is 7.46
